A collection of compounds and their measured DC50
- Subject Of Test: SMARCA2 (Homo sapiens, UniProt P51531)
- Construct: endogenous in cells; host or cells: RKO cells (CRL-2577, ATCC)
- Sequence (P51531 whole entry): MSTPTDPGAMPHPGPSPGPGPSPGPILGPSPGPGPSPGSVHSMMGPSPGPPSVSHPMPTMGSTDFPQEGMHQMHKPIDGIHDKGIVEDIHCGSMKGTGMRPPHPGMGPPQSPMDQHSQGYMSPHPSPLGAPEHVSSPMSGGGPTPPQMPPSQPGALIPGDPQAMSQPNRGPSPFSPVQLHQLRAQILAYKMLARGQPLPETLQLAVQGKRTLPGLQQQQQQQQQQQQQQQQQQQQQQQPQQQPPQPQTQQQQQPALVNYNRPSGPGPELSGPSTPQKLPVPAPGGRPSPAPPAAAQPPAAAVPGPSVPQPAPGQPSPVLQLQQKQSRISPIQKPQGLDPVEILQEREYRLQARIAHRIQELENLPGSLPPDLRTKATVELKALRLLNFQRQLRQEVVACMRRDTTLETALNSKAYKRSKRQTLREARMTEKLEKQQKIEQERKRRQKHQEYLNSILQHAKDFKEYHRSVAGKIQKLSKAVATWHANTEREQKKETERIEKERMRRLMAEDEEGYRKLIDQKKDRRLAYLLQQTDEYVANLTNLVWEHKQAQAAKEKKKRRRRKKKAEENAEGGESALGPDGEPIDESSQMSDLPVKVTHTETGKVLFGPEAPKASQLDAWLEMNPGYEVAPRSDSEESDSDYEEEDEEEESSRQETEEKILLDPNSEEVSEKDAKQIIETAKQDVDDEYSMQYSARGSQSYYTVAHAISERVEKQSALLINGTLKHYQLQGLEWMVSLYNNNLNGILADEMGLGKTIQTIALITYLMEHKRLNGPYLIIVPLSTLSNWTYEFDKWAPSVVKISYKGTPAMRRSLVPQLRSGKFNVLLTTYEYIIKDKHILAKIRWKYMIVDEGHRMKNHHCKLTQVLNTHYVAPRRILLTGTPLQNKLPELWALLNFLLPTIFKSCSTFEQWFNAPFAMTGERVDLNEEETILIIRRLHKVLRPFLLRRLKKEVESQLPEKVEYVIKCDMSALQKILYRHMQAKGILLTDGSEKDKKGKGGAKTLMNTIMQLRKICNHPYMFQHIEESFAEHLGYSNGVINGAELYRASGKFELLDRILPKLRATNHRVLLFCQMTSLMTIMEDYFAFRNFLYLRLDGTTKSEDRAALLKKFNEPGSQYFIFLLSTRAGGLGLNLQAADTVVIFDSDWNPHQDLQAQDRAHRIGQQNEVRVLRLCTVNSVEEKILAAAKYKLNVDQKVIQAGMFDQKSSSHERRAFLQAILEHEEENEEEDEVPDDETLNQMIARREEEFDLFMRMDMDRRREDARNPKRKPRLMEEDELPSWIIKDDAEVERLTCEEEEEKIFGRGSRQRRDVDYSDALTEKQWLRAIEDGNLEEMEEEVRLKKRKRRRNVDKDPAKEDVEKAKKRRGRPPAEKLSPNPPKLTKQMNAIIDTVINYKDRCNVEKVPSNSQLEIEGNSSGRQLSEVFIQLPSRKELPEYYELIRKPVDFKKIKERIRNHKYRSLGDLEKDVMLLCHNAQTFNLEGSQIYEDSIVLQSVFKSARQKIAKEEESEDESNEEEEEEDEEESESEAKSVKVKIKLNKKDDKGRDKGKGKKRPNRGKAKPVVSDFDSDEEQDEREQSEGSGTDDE
- Assay Comment: SMARCA2 degradation analysis by imaging in RKO cells (DC50 A2)
- Type: cell-based
- Settings: tables 69, 70, 73, 76-78

[
  {
    "Compound": "CCOC(=O)c1ncsc1-c1ccc([C@H](CCCN2CCC(c3ccc4c(c3)n(C3CCCC3)c3nc(=O)c5c(Br)cccc5n43)CC2)NC(=O)[C@@H]2C[C@@H](O)CN2C(=O)[C@@H](NC(=O)C2(F)CC2)C(C)(C)C)cc1 [Compound 42w]",
    "Unit Abbrev": "nM",
    "DC50": 11
  },
  {
    "Compound": "Cc1ncsc1-c1ccc([C@H](CCCCCN2CCC(c3ccc4c(c3)n(C3CCCC3)c3nc(=O)c5c(Br)cccc5n43)CC2)NC(=O)[C@@H]2C[C@@H](O)CN2C(=O)[C@@H](NC(=O)C2(F)CC2)C(C)(C)C)cc1 [Compound 42h]",
    "Unit Abbrev": "nM",
    "DC50": 0.3
  },
  {
    "Compound": "Cc1ncsc1-c1ccc([C@H](COCCN2CCC(c3ccc4c(c3)n(C3CCCC3)c3nc(=O)c5c(Br)cccc5n43)CC2)NC(=O)[C@@H]2C[C@@H](O)CN2C(=O)[C@@H](NC(=O)C23CCCCC2C3)C(C)(C)C)cc1 (stereo partly drawn) [Compound 42bh]",
    "Unit Abbrev": "nM",
    "DC50": 6
  }
]

---

- Subject Of Test: SMARCA2 (Homo sapiens)
- Construct: endogenous in cells; host or cells: RKO cells (CRL-2577, ATCC)
- Assay Comment: SMARCA2 degradation analysis by imaging in RKO cells (DC50 A2)
- Assay type: cell-based
- Settings: tables 69, 70, 73, 76-78
Reported Property: DC50 (nM)

[
  {
    "Compound": "Cc1ncsc1-c1ccc([C@H](COCCCCCN2CCC(c3ccc4c(c3)n(C3CCCC3)c3nc(=O)c5c(Br)cccc5n43)CC2)NC(=O)[C@@H]2C[C@@H](O)CN2C(=O)[C@@H](NC(=O)C2(F)CC2)C(C)(C)C)cc1 [Compound 42s]",
    "Reported": 0.7
  },
  {
    "Compound": "CCCCC(=O)O[C@@H]1C[C@@H](C(=O)N[C@@H](CC[C@H](C)CCN2CCC(c3ccc4c(c3)n(C3CCCC3)c3nc(=O)c5c(Br)cccc5n43)CC2)c2ccc(-c3scnc3C)cc2)N(C(=O)[C@@H](NC(=O)C2(F)CC2)C(C)(C)C)C1 [Compound 42bk]",
    "Reported": 3
  },
  {
    "Compound": "Cc1ncsc1-c1ccc([C@H](CCCCN2CCC(c3ccc4c(c3)n(C3CCCC3)c3nc(=O)c5c(Br)cccc5n43)CC2)NC(=O)[C@@H]2C[C@@H](O)CN2C(=O)[C@@H](NC(=O)C2(F)CC2)C(C)(C)C)cc1 [Compound 42ai]",
    "Reported": 2
  },
  {
    "Compound": "Cc1ncsc1-c1ccc([C@H](CCCN2CCC(c3ccc4c(c3)n(C3CCCC3)c3nc(=O)c5c(Br)cccc5n43)CC2)NC(=O)[C@@H]2C[C@@H](O)CN2C(=O)[C@@H](NC(=O)C2(F)CC2)C(C)(C)C)cc1 [Compound 42q]",
    "Reported": 0.4
  },
  {
    "Compound": "Cc1ncsc1-c1ccc([C@H](CCC(O)CCN2CCC(c3ccc4c(c3)n(C3CCCC3)c3nc(=O)c5c(Br)cccc5n43)CC2)NC(=O)[C@@H]2C[C@@H](O)CN2C(=O)[C@@H](NC(=O)C2(F)CC2)C(C)(C)C)cc1 (stereo partly shown) [Compound 42e]",
    "Reported": 4.1
  },
  {
    "Compound": "Cc1ncsc1-c1ccc([C@H](CO[C@H](C)CN2CCC(c3ccc4c(c3)n(C3CCCC3)c3nc(=O)c5c(Cl)cccc5n43)CC2)NC(=O)[C@@H]2C[C@@H](O)CN2C(=O)[C@@H](NC(=O)C2(F)CC2)C23CC4CC(CC(C4)C2)C3)cc1 [Compound 42r]",
    "Reported": 2
  },
  {
    "Compound": "Cc1ncsc1-c1ccc([C@H](CO[C@H](C)CN2CCC(c3cc4c(cc3OC[C@@H]3CCCO3)n3c5cccc(Br)c5c(=O)nc3n4C3CCCC3)CC2)NC(=O)[C@@H]2C[C@@H](O)CN2C(=O)[C@@H](NC(=O)C2(F)CC2)C23CC4CC(CC(C4)C2)C3)cc1 [Compound 42an]",
    "Reported": 0.6
  },
  {
    "Compound": "CC(=O)O[C@@H]1C[C@@H](C(=O)N[C@@H](CCCCCN2CCC(c3ccc4c(c3)n(C3CCCC3)c3nc(=O)c5c(Br)cccc5n43)CC2)c2ccc(-c3scnc3C)cc2)N(C(=O)[C@@H](NC(=O)C2(F)CC2)C(C)(C)C)C1 [Compound 42bj]",
    "Reported": 8
  },
  {
    "Compound": "CCC(C)(C)[C@H](NC(=O)C1(F)CC1)C(=O)N1C[C@H](O)C[C@H]1C(=O)N[C@@H](COC(C)(C)CN1CCN(c2ccc3c(c2)n(C2CCCC2)c2nc(=O)c4c(Br)cccc4n32)CC1)c1ccc(-c2scnc2C)cc1 [Compound 42j]",
    "Reported": 4
  },
  {
    "Compound": "Cc1ncsc1-c1ccc([C@H](CCCN2CCC(c3cc4c(cc3OCCCN(C)C)n3c5cccc(Br)c5c(=O)nc3n4C3CCCC3)CC2)NC(=O)[C@@H]2C[C@@H](O)CN2C(=O)[C@@H](NC(=O)C2(F)CC2)C(C)(C)C)cc1 [Compound 42aa]",
    "Reported": 10
  },
  {
    "Compound": "Cc1ncsc1-c1ccc([C@H](C[C@@H](C)CN2CCC(c3ccc4c(c3)n(C3CCCC3)c3nc(=O)c5c(Br)cccc5n43)CC2)NC(=O)[C@@H]2C[C@@H](O)CN2C(=O)[C@@H](NC(=O)C2(F)CC2)C(C)(C)C)cc1 [Compound 42u]",
    "Reported": 0.3
  },
  {
    "Compound": "Cc1ncsc1-c1ccc([C@H](COCCN2CCC(c3ccc4c(c3)n(C3CCCC3)c3nc(=O)c5c(Br)cccc5n43)CC2)NC(=O)[C@@H]2C[C@@H](O)CN2C(=O)[C@@H](NC(=O)C2(C3CC3)CC2)C(C)(C)C)cc1 [Compound 42bd]",
    "Reported": 11
  },
  {
    "Compound": "Cc1ncsc1-c1ccc([C@H](CCCN2CCC(c3cc4c(cc3OCCOCCN3CCOCC3)n3c5cccc(Br)c5c(=O)nc3n4C3CCCC3)CC2)NC(=O)[C@@H]2C[C@@H](O)CN2C(=O)[C@@H](NC(=O)C2(F)CC2)C(C)(C)C)cc1 [Compound 42z]",
    "Reported": 20
  },
  {
    "Compound": "Cc1ncsc1-c1ccc([C@H](CCCCCN2CCN(c3ccc4c(c3)n(C3CCCC3)c3nc(=O)c5c(Br)cccc5n43)CC2(C)C)NC(=O)[C@@H]2C[C@@H](O)CN2C(=O)[C@@H](NC(=O)C2(F)CC2)C(C)(C)C)cc1 [Compound 42ao]",
    "Reported": 1
  },
  {
    "Compound": "Cc1ncsc1-c1ccc([C@H](COC(C)(C)CN2CCC(c3ccc4c(c3)n(C3CCCC3)c3nc(=O)c5c(Br)cccc5n43)CC2)NC(=O)[C@@H]2C[C@@H](O)CN2C(=O)[C@@H](NC(=O)C2(F)CC2)C2(C)CCCC2)cc1 [Compound 42n]",
    "Reported": 3
  },
  {
    "Compound": "Cc1ncsc1-c1ccc([C@H](CCCCCN2CCC(c3ccc4c(c3)n(C3CCCC3)c3nc(=O)c5c(Br)cccc5n43)CC2)NC(=O)[C@@H]2C[C@@H](O)CN2C(=O)[C@@H](NC(=O)C2(F)CC2)C(C)(C)C2CC2)cc1 [Compound 42c]",
    "Reported": 0.7
  }
]

---

- Subject Of Test: SMARCA4 (Homo sapiens)
- Construct: endogenous in cells; host or cells: RKO cells (CRL-2577, ATCC)
- Sequence (P51532 whole entry): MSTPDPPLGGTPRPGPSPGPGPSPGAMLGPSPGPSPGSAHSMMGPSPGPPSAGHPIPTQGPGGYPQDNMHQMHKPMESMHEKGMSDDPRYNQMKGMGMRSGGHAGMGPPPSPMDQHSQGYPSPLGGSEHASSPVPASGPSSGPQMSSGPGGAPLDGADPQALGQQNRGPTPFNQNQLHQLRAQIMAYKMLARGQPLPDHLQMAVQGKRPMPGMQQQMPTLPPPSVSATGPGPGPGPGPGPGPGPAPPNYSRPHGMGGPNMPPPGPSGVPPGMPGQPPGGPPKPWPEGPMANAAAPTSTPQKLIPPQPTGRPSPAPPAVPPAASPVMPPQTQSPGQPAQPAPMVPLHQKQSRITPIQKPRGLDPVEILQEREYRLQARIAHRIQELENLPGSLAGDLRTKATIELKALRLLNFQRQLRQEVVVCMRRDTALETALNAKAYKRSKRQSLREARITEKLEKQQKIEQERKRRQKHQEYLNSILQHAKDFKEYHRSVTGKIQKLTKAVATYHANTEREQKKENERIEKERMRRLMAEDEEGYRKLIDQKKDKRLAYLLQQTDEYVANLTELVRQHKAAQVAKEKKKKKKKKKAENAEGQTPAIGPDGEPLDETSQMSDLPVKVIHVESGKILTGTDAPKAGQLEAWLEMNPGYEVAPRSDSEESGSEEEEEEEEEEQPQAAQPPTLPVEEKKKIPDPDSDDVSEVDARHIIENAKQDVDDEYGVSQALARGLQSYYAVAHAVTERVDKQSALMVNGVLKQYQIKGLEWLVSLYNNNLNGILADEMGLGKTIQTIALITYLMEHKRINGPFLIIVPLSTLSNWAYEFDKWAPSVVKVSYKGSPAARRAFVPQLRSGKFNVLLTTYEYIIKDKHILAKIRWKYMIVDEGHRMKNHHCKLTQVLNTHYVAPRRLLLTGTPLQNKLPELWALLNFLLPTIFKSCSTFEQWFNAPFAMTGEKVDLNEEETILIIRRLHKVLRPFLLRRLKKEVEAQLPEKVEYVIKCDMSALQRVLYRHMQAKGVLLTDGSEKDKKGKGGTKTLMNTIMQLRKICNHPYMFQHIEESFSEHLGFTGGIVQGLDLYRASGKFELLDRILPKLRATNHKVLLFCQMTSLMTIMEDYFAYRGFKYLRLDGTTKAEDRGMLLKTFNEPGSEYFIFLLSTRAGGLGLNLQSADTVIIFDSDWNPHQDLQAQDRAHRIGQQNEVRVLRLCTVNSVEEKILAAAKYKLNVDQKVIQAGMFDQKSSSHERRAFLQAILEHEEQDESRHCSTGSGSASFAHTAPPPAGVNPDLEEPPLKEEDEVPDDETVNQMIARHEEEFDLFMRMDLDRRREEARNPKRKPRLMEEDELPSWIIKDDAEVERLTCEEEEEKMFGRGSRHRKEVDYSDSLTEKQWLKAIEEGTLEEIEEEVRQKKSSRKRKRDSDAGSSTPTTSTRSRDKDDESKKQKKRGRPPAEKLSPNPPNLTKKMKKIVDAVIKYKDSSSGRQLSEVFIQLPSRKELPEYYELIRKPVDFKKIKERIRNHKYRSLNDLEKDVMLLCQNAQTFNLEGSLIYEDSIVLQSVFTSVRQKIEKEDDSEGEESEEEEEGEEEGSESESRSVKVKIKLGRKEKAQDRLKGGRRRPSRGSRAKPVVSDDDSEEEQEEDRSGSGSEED
- Assay Comment: SMARCA4 degradation analysis by imaging in RKO cells (DC50 A4)
- Type: cell-based
- Settings: tables 69, 70, 73, 76-78

[
  {
    "Compound": "Cc1ncsc1-c1ccc([C@H](COC(C)(C)CN2CCC(c3ccc4c(c3)n(C3CCCC3)c3nc(=O)c5c(Br)cccc5n43)CC2)NC(=O)[C@@H]2C[C@@H](O)CN2C(=O)[C@@H](NC(=O)C2(F)CC2)C2(C)CCCC2)cc1 [Compound 42n]",
    "Qual": "=",
    "DC50 (nM)": 800
  },
  {
    "Compound": "Cc1ncsc1-c1ccc([C@@H](CC[C@@H](C)CCN2CCC(c3ccc4c(c3)n(C3CCCC3)c3nc(=O)c5c(Br)cccc5n43)CC2)NC(=O)[C@@H]2C[C@@H](O)CN2C(=O)[C@@H](NC(=O)C2(F)CC2)C(C)(C)C)cc1 [Compound 42as]",
    "Qual": ">",
    "DC50 (nM)": 833
  },
  {
    "Compound": "CCCCC(=O)O[C@@H]1C[C@@H](C(=O)N[C@@H](CC[C@H](C)CCN2CCC(c3ccc4c(c3)n(C3CCCC3)c3nc(=O)c5c(Br)cccc5n43)CC2)c2ccc(-c3scnc3C)cc2)N(C(=O)[C@@H](NC(=O)C2(F)CC2)C(C)(C)C)C1 [Compound 42bk]",
    "Qual": "=",
    "DC50 (nM)": 60
  },
  {
    "Compound": "Cc1ncsc1-c1ccc([C@H](COCC(O)CN2CCC(c3ccc4c(c3)n(C3CCCC3)c3nc(=O)c5c(Br)cccc5n43)CC2)NC(=O)[C@@H]2C[C@@H](O)CN2C(=O)[C@@H](NC(=O)C2(F)CC2)C(C)(C)C)cc1 (stereo partly shown) [Compound 42af]",
    "Qual": "=",
    "DC50 (nM)": 25
  }
]
